Origin of the recorded values: ChEMBL document CHEMBL5715935

- Tested on: NCI-H69
- testProtocol: Cytotoxicity against p53 mutant human NCI-H69 cells assessed as inhibition of cell proliferation incubated for 72 hrs by MTT assay
- Format: functional, cell-based
- cond: NCI-H69, 72 h
pIC50: −log10 of the molar value.
reportedMetric: pIC50

CC[C@H](CO)Nc1nc(NCc2ccccc2)c2ncn(C(C)C)c2n1; 4.59

###

- Tested on: MIA PaCa-2
- testProtocol: Cytotoxicity against p53 mutant human MIA PaCa-2 cells assessed as inhibition of cell proliferation incubated for 72 hrs by MTT assay
- Assay type: functional, cell-based
- cond: MIA PaCa-2, 72 h
pIC50: −log10 of the molar value.
reportedMetric: pIC50

CC[C@H](CO)Nc1nc(NCc2ccccc2)c2ncn(C(C)C)c2n1; 4.86
